Each entry below carries its recorded Kd.
- TARGET: T1, human nerve growth factor (human, UniProt P01138 122-241)
- T1 construct: Immobilised on CM5 chips for BIAcore, soluble in neuron survival assays; also called human NGF; hNGF
- T1 sequence (P01138 122-241 limits assumed): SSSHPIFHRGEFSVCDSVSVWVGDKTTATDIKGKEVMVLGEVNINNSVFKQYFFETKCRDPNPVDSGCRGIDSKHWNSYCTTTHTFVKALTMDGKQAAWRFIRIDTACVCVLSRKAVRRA
- ASSAY PROCEDURE: BIAcore SPR screen, Fab over immobilised human NGF; KD calculated from koff with kon 4e4 M-1s-1
// return numeric value only (unit: nM, not printed)

Look over these answered cases.
Answer with reported Kd of 8L2-6D5 Fab with CDR H3 mutation Y106R (Fab, V domains shown, See note of m8) VH: QVQLQESGPGLVKPSETLSLTCTVSGFSLIGYDINWIRQPPGKGLEWIGMIWGDGTTDYNSALKSRVTISKDTSKNQFSLKLSSVTAADTAVYYCARGGYYYGTSRYFDYWGQGTLVTVS VL: DIQMTQSPSSLSASVGDRVTITCRASQDISNHLNWYQQKPGKAPKLLIYYISRFHSGVPSRFSGSGSGTDFTFTISSLQPEDIATYYCQQSKTLPYTFGQGTKLEIKR
40

Answer with reported Kd of 8L2-6D5 Fab with CDR H3 mutation Y110K (Fab, V domains shown, See note of m8) VH: QVQLQESGPGLVKPSETLSLTCTVSGFSLIGYDINWIRQPPGKGLEWIGMIWGDGTTDYNSALKSRVTISKDTSKNQFSLKLSSVTAADTAVYYCARGGYYYGTSYYFDKWGQGTLVTVS VL: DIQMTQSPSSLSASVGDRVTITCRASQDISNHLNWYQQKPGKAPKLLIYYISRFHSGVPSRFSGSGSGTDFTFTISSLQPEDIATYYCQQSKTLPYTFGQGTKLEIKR
35

New cases:
Answer with reported Kd of 8L2-6D5 Fab with CDR H3 mutation D109G (Fab, V domains shown, See note of m8) VH: QVQLQESGPGLVKPSETLSLTCTVSGFSLIGYDINWIRQPPGKGLEWIGMIWGDGTTDYNSALKSRVTISKDTSKNQFSLKLSSVTAADTAVYYCARGGYYYGTSYYFGYWGQGTLVTVS VL: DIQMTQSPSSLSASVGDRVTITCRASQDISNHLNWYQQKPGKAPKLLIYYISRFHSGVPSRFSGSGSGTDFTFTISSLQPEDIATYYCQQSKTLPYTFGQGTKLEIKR
25
